EXPERIMENT: PET/CT DOTATOC uptake by subcutaneous Jurkat T cell xenografts (0-100% SSTR2+)
Assay type: in vivo, NSG mice
CONDITION LABEL: NSG (NOD/LtSz Prkdc^scid Il2rg^tm1Wjl/J), mouse, subcutaneous Jurkat tumor xenograft, tumors below 65 mm^3, 0% SSTR2+
MEASURED METRIC: tissue uptake per volume

MOLECULE	DATA VALUE
C[C@@H](O)[C@@H]1NC(=O)[C@H](CCCCN)NC(=O)[C@@H](Cc2c[nH]c3ccccc23)NC(=O)[C@H](Cc2ccc(O)cc2)NC(=O)[C@@H](NC(=O)[C@@H](Cc2ccccc2)NC(=O)CN2CCN(CC(=O)O)CCN(CC(=O)O)CCN(CC(=O)O)CC2)CSSC[C@@H](C(=O)N[C@H](CO)[C@@H](C)O)NC1=O [DOTATOC]	0.44 %ID/mL
